systemName: recombinant NA-1 (H1N1 neuraminidase) (Influenza A virus, UniProt Q9IGQ6)
Sequence (Q9IGQ6 whole entry, looked up): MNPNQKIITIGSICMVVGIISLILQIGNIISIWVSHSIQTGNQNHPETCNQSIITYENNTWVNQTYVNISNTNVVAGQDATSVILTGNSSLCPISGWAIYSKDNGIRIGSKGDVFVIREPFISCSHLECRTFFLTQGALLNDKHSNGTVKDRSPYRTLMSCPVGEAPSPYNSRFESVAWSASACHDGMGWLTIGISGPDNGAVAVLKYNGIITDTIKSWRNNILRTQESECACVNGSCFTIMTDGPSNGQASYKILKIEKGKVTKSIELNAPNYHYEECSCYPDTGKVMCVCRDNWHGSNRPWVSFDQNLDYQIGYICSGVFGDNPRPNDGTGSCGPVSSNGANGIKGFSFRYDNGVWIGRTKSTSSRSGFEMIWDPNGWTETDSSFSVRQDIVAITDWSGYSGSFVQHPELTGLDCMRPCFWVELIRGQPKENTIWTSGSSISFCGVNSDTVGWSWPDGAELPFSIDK
assayRemarks: biochemical
Hi! Could you tag entries with IC10 on NA-1 activity below 5 µg/mL as fulfilled, and those at or above as not fulfilled? Much appreciated.

COc1ccc2cc3[n+](cc2c1OC)CCc1cc2c(cc1-3)OCO2 | fulfilled
COc1c(O[C@@H]2O[C@H](C(=O)O)[C@@H](O)[C@H](O)[C@H]2O)cc(O)c2c(=O)cc(-c3ccccc3)oc12 [Wogonoside] | not fulfilled
O=c1cc(-c2ccccc2)oc2cc(O)c(O)c(O)c12 | not fulfilled
COc1cc2c(cc1OC)-c1cc3ccc(OC)c(OC)c3c[n+]1CC2 | fulfilled
COc1cc2c(cc1O)CC[n+]1cc3c(OC)c(OC)ccc3cc1-2 | fulfilled
COC(=O)C1=CO[C@@H](O[C@@H]2O[C@H](CO)[C@@H](O)[C@H](O)[C@H]2O)[C@@H]2C(CO)=CC[C@H]12 [Geniposide] | fulfilled
CCC(CC)[C@H](NC(C)=O)[C@@H]1[C@H](O)[C@@H](C(=O)O)C[C@H]1N=C(N)N [Peramivir, reference compound] | not fulfilled
COc1c(O[C@@H]2O[C@H](C(=O)O)[C@@H](O)[C@H](O)[C@H]2O)cc2oc(-c3ccccc3)cc(=O)c2c1O [Oroxylin A 7-O-β-D-glucuronide] | not fulfilled

Request: Would you kindly verify if IC10 on NA-1 activity of COc1cc2c(cc1O)C[C@H]1c3cc(O)c(OC)cc3CC[N@@+]1(C)C2 is strictly less than 5 µg/mL?
Result: not fulfilled

Request: # check: IC10 on NA-1 activity < 5 µg/mL for COc1c(O)cc(O)c2c(=O)cc(-c3ccccc3)oc12
Result: not fulfilled
